Entries and their DC50
# study-target: androgen receptor (AR) splicing variant AR-v7 (Homo sapiens)
# Construct: The degradation activity of compounds on AR-v7 in 22RV1 cells; host or cells: 22RV1 cells
# Sequence (P10275 1-644 isoform P10275-3): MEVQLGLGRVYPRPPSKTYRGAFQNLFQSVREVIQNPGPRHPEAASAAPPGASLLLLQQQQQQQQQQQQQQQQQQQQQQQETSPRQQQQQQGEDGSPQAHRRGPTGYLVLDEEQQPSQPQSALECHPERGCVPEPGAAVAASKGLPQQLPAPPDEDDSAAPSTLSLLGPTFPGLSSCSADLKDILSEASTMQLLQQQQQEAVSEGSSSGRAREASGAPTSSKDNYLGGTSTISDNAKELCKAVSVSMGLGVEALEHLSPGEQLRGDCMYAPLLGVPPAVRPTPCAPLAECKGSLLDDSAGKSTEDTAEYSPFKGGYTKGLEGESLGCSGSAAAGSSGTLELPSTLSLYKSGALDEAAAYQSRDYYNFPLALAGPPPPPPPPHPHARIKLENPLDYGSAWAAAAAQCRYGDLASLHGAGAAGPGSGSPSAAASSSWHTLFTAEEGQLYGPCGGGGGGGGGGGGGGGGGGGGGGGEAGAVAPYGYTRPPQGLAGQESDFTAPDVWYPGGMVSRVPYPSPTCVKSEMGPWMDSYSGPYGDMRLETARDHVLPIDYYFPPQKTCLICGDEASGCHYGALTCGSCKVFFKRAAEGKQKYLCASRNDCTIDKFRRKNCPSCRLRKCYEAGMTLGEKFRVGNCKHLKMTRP
# experiment: Degradation activity on androgen receptor splicing variant AR-v7 in 22RV1 cells (ELISA)
# Format: cell-based
# study-conditions: AR-v7 degradation in 22RV1 cells, 48 h, class symbols
# Description: The degradation activity of the compound of the present invention on the androgen receptor splicing variant AR-V7 was analyzed using enzyme-linked immunosorbent assay (ELISA). The plate was cultured in a 5% CO2 cell incubator at 37° C. for 2 days until the cells adhered to the wall. • 2) The drug was prepared into 10 mM stock solution with dimethylsulfoxide (DMSO). […] The plate was gently shaken and mixed. […] The absorbance was read at 450 nm within 30 min. […]
measured-attribute: DC50

[
  {
    "compound": "Cc1nnc(-c2ccc(Oc3ccc(C(C)(C)c4ccc(O[C@H]5C[C@H](Nc6ccc7c(c6)C(=O)N(C6CCC(=O)NC6=O)C7=O)C5)cc4)cc3)nc2)o1 (stereo partly drawn) [Example 216]",
    "study-target": "androgen receptor (AR) splicing variant AR-v7 (Homo sapiens)",
    "measured-attribute": "DC50",
    "measurement": "11 to 100 nM"
  },
  {
    "compound": "CC(C)(c1ccc(Oc2ccnc(N3CC4(COC4)C3)n2)cc1)c1ccc(O[C@H]2C[C@@H](Nc3ccc4c(c3)C(=O)N(C3CCC(=O)NC3=O)C4=O)C2)cc1 (stereo partly drawn) [Example 459]",
    "study-target": "androgen receptor (AR) splicing variant AR-v7 (Homo sapiens)",
    "measured-attribute": "DC50",
    "measurement": "11 to 100 nM"
  },
  {
    "compound": "CC(=O)c1nccc(COc2ccc(C(C)(C)c3ccc(O[C@H]4C[C@H](N(C)c5ccc6c(c5)C(=O)N(C5CCC(=O)NC5=O)C6=O)C4)cc3)cc2)n1 (stereo partly drawn) [Example 111]",
    "study-target": "androgen receptor (AR) splicing variant AR-v7 (Homo sapiens)",
    "measured-attribute": "DC50",
    "measurement": "101 to 1000 nM"
  }
]
